- assay_procedure: in vivo
- study_conditions: mouse, po, 20 mg/kg
property: Cmax (µM)
Reply with just the number (in µM).

Enquiry: Give its Cmax value. Item: O=C(O)c1cccnc1
Return: 71
